# credit: paper PMC6321291

test: MTT assay, WI38 healthy control; type: cell-based; settings: WI38 human lung fibroblast cells, WI38 healthy control human fibroblast cell line
Experimental readout: IC50 at 72 h (µM)

Query smiles | IC50 at 72 h (µM)
Cc1c(O)cc(C(C)C)c2oc(-c3ccc(Br)cc3)nc12 | 57.6
CC1=C(N)C(=O)C(C(C)C)=CC1=O | 9.41
Cc1c(O)cc(C(C)C)c2oc(-c3ccccc3)nc12 | 19.9

1. Cc1c(O)cc(C(C)C)c2oc(-c3cccs3)nc12
2. Cc1c(O)cc(C(C)C)c2oc(-c3ccc([N+](=O)[O-])cc3)nc12
### Prompt Of 1 and 2 , which shows the smaller IC50 at 72 h value? Response format: the label of the selected entry.
### Response 2
(2: 6.21 µM, 1: 9.97 µM)

###

Test system: SW620 (colorectal adenocarcinoma, metastatic)
Test: MTT assay, SW620
Assay type: cell-based
Settings: Homo sapiens, SW-620, 72 h
Experimental: The tested compounds were dissolved in DMSO in five, 10-fold dilutions (0.01–100 µM). […] The MTT assay was used for evaluation of effects of tested compounds on viability of carcinoma and control cell lines. […] After 72 h of incubation, the cell growth rate was evaluated by performing the MTT assay: experimentally determined absorbance values were transformed into a cell percentage growth (PG) using the formulas proposed by NIH and described previously. […]
pIC50: −log10 of the molar value.
Experimental readout: pIC50

Compound | pIC50
Cc1c(O)cc(C(C)C)c2oc(-c3ccc([N+](=O)[O-])cc3)nc12 [1g] | 4.26
Cc1c(O)cc(C(C)C)c2oc(-c3ccccc3O)nc12 [1b] | 4.36
